- measured target: T1, M2-1
- T1 construct: also called PD1 mutant M2-1
- procedure details: scFv-phage ELISA
property measured: OD490
Just the number, please.

What the record says about PD1-42G4 (antibody, V domains shown, scFv-phage in the screening ELISA; later whole IgG) VH: QVQLVESGGGLVKPGGSLRLSCAASGFTFSDYYMSWIRQAPGKGLEWVSDISASGNSIYYADSVKRRFTISRDNSKNSLYLQMNSLRAEDTAVYYCVTSGPFGEFRNWGLGTLVTVSS VL: DIQMTQSPSSLSASVGDRVTTTCRASQGISSYLAWYQQKPGKAPKLLIYAASTLQSGVPSRFSGSGSGTDFTLTISSLQPEDFATYFCQQSYTSPRTFGQGTKLDIK : OD490 is 0.6

Quick note, OD490 for PD1-49A2 (antibody, V domains shown, scFv-phage in the screening ELISA; whole IgG in the other assays; also called Parent 49A2) VH: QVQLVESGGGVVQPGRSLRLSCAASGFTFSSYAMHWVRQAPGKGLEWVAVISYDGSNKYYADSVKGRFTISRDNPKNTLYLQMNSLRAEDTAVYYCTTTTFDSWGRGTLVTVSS VL: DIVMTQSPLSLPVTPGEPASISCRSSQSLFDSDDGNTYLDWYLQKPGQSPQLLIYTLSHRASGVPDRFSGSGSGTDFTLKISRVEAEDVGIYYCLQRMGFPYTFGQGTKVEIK landed at 3.7

Short answer for PD1-49B9 (antibody, V domains shown, scFv-phage in the screening ELISA; later whole IgG) VH: QMQLVESGGGLVQPGRSLRLSCAASGFTFEDYAMHWVRQPPGKGLEWVSSISWNSHNIAYADSVKGRFTISRDNSKNSLYLQMNSLRAEDTAVYYCSTSGLGVHAWGQGTMVTVSS VL: QSALTQPPSASGSPGQSVTISCTGTSSDVGGYNYVSWYQQHPGKAPKLMIYEVSKRPSGVPDRFSGSKSGNTASLTVSGLQPEDEADYYCSSFARNSNYVFGTGTKVTVL : OD490 was 3.8

Summary for this binder, PD1-45F4 (antibody, V domains shown, scFv-phage in the screening ELISA; later whole IgG) VH: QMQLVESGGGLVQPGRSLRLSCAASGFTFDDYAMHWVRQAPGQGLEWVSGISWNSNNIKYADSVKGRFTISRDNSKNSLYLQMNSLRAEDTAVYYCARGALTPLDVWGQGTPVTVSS VL: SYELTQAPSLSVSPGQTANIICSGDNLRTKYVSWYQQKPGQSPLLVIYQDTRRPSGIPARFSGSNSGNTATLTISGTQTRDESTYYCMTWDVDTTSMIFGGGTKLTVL : OD490 is 3
